Experiment: yeast display, Sf9 membrane polyspecificity reagent, FACS + sequencing; frameworks hold sequencing errors
Measurement Name: polyreactivity (PSR sort gate)

QVQLVESGGGLVQAGGSLRLSCAASGRIFRYYAMGWYRQAPGKETELVAAINWSGGSTYYADSVKGRFTISRDNAKNTVYLQMNSLKPEDTAVYYCNRRAYIRYDSSSLDYWGQGTQVTVSS; low polyreactivity
QVQLVESGGGLVQAGGSLRLSCAASGYTFRLYAMGWYRQAPGKERELVAAITSRGGTFYADSVKGRFTLSRDNAKNTVYLQMNSLKPEDTAVYYCAVAPNYPDFRRAIYLYDYWGQGTQLTVSS; low polyreactivity

###

Assay: yeast display, Sf9 membrane polyspecificity reagent, FACS + sequencing; frameworks hold sequencing errors
Measurement Name: polyreactivity (PSR sort gate)

QVQLVESGGGLVQAGGSLRLTCAASGYTFRRTGMGWYRQAPGKERELVAAITNGGSTKYADSVKGRYTISRDNAKNTVYLQMNSLKPEDTAVYDCFYYVYAYDYWGQGTQVTLSS; high polyreactivity
QVQLVESGGGLVQAGGSLRLICAASGRTFYNAMGWYRQAPGKERELVAAISSAGRTYYADSVKGRFTISRDNAKNTVYLQMNSLKPEDTAVYYCAATAFSYYPYHGDYWGQGTQVTVSS; high polyreactivity
